Test: clinical
Details: human, plasma, oral, 12 mg TID
readout name: Tmax (h)
Answer in h, number only, no unit symbol.

Data request: Fill blank: measured Tmax of the compound C[C@H]1CN2CCNCc3ccc(C(=O)NCC(F)F)c1c32 [Compound 1] is ____.
Data returned: 1.27

These measurements were taken from patent US20260174777A1.
